- Tested on: ABCB1 expression in NCI-H460/R cells
- experimental.protocol: Immunofluorescence assay of MDR marker ABCB1 expression
- Format: cell-based, human
- experimental.context: NCI-H460/R monoculture, five concentrations, 24 h
- From the text: Vinorelbine and pemetrexed were purchased from Selleckchem (Houston, TX, USA). Carboplatin, cisplatin, docetaxel, etoposide, gemcitabine, gefitinib, and paclitaxel were purchased from Sigma-Aldrich Chemie GmbH (Taufkirchen, Germany). […] The immunofluorescence assay for the quantification of MDR markers was optimized to distinguish cancer cells from stromal cells using a cytokeratin 8/18 (CK8/18) antibody cocktail. […]

{"compound": "Nc1ccn([C@@H]2O[C@H](CO)[C@@H](O)C2(F)F)c(=O)n1 [Gemcitabine, gemcitabine]", "ABCB1 Expression": "no change"}
{"compound": "N.N.[Cl][Pt][Cl] [Cisplatin, cisplatin]", "ABCB1 Expression": "no change"}
{"compound": "Nc1nc2[nH]cc(CCc3ccc(C(=O)N[C@@H](CCC(=O)O)C(=O)O)cc3)c2c(=O)[nH]1 [Pemetrexed, pemetrexed]", "ABCB1 Expression": "no change"}
